- Test system: Escherichia coli
- methodDescription: Activity of Escherichia coli XL1-Blue wild-type IMP-1 beta-lactamase by spectrophotometer
Here the recorded kcat is given for each entry.
Your answer is read as s⁻¹, so omit the unit and give the number.

Illustrative cases are given below, each with its answer.
structure: C[C@@H](O)[C@H]1C(=O)N2C(C(=O)O)=C(SCCNC=N)C[C@H]12
targetUnderTest: Escherichia coli
kcat (s⁻¹): 68

structure: CC(=O)OCC1=C(C(=O)O)N2C(=O)[C@@H](NC(=O)Cc3cccs3)[C@H]2SC1
targetUnderTest: Escherichia coli
kcat (s⁻¹): 32

structure: CO/N=C(\C(=O)N[C@@H]1C(=O)N2C(C(=O)[O-])=C(C[N+]3(C)CCCC3)CS[C@H]12)c1csc(N)n1
targetUnderTest: Escherichia coli
kcat (s⁻¹): 7

So what kcat did C[C@@H](O)[C@H]1C(=O)N2C(C(=O)O)=C(S[C@@H]3CN[C@H](C(=O)N(C)C)C3)[C@H](C)[C@H]12 get with Escherichia coli?
5
